Target: Solute carrier organic anion transporter family member 1B3 (OATP1B3) (Homo sapiens, UniProt Q9NPD5)
Sequence (Q9NPD5 whole entry): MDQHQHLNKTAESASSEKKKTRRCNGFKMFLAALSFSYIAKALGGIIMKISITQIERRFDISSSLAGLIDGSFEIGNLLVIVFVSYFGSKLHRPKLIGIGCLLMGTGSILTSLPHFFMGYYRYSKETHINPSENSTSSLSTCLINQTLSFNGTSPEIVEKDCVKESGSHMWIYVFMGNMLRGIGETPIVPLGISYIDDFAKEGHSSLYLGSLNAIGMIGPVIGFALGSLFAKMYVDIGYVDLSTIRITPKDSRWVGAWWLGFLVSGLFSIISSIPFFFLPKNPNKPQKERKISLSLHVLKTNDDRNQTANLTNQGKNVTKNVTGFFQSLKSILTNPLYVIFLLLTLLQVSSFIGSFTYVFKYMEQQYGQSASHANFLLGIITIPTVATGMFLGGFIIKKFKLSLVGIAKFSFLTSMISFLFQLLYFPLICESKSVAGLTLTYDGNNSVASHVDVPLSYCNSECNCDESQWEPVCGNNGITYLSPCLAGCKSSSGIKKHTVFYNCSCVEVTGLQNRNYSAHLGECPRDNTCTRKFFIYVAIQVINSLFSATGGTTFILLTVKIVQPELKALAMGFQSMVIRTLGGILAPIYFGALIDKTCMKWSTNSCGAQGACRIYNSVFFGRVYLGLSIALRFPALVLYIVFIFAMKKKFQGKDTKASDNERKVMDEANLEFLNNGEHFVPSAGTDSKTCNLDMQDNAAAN
Assay: TP_TRANSPORTER: uptake in Xenopus laevis oocytes
Assay type: functional, cell-based, Oocyte
Conditions: Xenopus laevis oocytes expressing the transporter
Assay Endpoint: Km

Km in this record for CC(O)C[C@@H]1NC(=O)[C@@H]2Cc3c([nH]c4ccccc34)SC[C@@H](NC(=O)[C@H]([C@@H](C)O)NC(=O)[C@H](C)NC1=O)C(=O)N1C[C@H](O)C[C@H]1C(=O)N[C@@H](C)C(=O)N2 (stereo partly specified) [DEMETHYLPHALLOIN] : 7.5 µM

====

target: Solute carrier organic anion transporter family member 1B2 (OATP1B2) (Rattus norvegicus, UniProt Q9QZX8); experiment: TP_TRANSPORTER: uptake in Xenopus laevis oocytes; type: functional, cell-based, Oocyte; settings: Xenopus laevis oocytes expressing the transporter
Sequence (Q9QZX8 whole entry): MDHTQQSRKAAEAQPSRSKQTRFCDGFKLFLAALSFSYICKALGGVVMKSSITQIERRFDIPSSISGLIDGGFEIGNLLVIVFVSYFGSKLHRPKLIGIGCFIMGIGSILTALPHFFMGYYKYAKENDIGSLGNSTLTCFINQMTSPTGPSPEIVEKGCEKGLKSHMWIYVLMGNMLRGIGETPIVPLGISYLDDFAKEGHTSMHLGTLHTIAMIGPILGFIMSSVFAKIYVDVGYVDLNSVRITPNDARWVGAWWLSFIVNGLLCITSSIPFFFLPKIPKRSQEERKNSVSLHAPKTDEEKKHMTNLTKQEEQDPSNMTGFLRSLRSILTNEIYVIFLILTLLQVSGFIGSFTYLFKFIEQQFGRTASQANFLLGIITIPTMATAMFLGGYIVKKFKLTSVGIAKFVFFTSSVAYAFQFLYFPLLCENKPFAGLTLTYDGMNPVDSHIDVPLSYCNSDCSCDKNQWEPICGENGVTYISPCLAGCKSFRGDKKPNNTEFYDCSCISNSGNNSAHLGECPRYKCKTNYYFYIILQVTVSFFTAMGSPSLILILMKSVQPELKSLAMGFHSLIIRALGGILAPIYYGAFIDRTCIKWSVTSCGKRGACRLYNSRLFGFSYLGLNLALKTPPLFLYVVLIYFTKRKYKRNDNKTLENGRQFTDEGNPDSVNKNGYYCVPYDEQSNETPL
Assay Endpoint: Km (µM)
Answer in µM, number only, no unit symbol.

Record summary for CC(O)C[C@@H]1NC(=O)[C@@H]2Cc3c([nH]c4ccccc34)SC[C@@H](NC(=O)[C@H]([C@@H](C)O)NC(=O)[C@H](C)NC1=O)C(=O)N1C[C@H](O)C[C@H]1C(=O)N[C@@H](C)C(=O)N2 (stereo partly specified) [DEMETHYLPHALLOIN] : reported Km = 5.7

====

biological target: Solute carrier organic anion transporter family member 1B1 (OATP1B1) (Homo sapiens, UniProt Q9Y6L6); assay: TP_TRANSPORTER: uptake in Xenopus laevis oocytes; type: functional, cell-based, Oocyte; conditions: Xenopus laevis oocytes expressing the transporter
Sequence (Q9Y6L6 whole entry): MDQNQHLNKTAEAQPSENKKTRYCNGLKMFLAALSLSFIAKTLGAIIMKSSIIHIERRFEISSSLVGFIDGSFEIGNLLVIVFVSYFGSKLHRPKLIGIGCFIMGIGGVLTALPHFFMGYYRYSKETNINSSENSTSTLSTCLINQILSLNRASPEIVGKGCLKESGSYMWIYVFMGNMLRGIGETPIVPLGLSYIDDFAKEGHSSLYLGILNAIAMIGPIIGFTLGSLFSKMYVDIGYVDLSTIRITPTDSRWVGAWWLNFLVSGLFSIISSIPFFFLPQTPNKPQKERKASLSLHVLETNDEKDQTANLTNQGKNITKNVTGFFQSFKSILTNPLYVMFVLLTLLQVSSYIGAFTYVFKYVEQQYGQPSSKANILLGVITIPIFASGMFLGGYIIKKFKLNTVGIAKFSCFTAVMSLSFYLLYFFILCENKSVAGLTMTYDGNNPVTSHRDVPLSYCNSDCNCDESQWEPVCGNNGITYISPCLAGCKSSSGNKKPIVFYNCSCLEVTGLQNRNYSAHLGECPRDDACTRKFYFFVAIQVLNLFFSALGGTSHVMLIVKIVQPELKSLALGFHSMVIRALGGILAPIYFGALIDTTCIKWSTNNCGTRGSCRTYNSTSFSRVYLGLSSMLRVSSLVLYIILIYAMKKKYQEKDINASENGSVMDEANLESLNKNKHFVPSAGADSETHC
Assay Endpoint: Km (µM)
Just the number please, in µM, no unit attached.

Km in this record for CC(O)C[C@@H]1NC(=O)[C@@H]2Cc3c([nH]c4ccccc34)SC[C@@H](NC(=O)[C@H]([C@@H](C)O)NC(=O)[C@H](C)NC1=O)C(=O)N1C[C@H](O)C[C@H]1C(=O)N[C@@H](C)C(=O)N2 (stereo partly specified) : 17
